Recorded below: HepSE_jaundice, system Hepatotoxicity.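 Also: Jaundice-related hepatic side-effect score drawn from the training data of the DILIps (drug-induced liver injury prediction system).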 Also: call rule not given here.
Please respond with just the number, no unit label.

| compound | target desc | HepSE_jaundice |
| --- | --- | --- |
| O=C(O[C@H]1C[C@H]2CC[C@@H](C1)[N+]21CCCC1)C(O)(c1ccccc1)c1ccccc1.[Cl-] [TROSPIUM CHLORIDE] | Hepatotoxicity | 0 |
| CCCC(C)C1(CC)C(=O)NC(=O)NC1=O (stereo unspecified) [PENTOBARBITAL] | Hepatotoxicity | 0 |
| COCCCC/C(=N\OCCN)c1ccc(C(F)(F)F)cc1 [FLUVOXAMINE] | Hepatotoxicity | 1 |
| O=P1(NCCCl)OCCCN1CCCl (stereo unspecified) [IFOSFAMIDE] | Hepatotoxicity | 0 |

# next compound below
Entry CCN(CC)CCNC(=O)c1c(C)[nH]c(/C=C2\C(=O)Nc3ccc(F)cc32)c1C [SUNITINIB] : HepSE_jaundice on Hepatotoxicity = 1

All figures here come from ChEMBL document CHEMBL1909294.
